# assay_overview: self-splicing fitness, log relative to wild type (ln ratio); higher = more splicing; Tetrahymena group I intron in knt gene, E. coli kanamycin selection, DiMSum; sequences stand for … in CUCUCU…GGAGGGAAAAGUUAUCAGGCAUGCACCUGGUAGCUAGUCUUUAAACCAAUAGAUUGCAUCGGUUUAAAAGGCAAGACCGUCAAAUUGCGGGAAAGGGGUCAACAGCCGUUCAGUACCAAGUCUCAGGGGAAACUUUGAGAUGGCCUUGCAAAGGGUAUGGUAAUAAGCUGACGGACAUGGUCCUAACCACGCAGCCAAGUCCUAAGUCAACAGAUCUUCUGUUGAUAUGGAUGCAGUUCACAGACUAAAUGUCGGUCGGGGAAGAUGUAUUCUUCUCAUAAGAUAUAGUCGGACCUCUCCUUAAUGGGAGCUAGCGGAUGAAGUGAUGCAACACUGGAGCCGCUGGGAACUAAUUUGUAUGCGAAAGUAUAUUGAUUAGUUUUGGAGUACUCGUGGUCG;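 note: selection with 25 µg/mL kanamycin versus none on LB agar overnight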
# cond: 37 °C

| sequence_chain | self-splicing fitness (ln) |
| --- | --- |
| AGCCAGCAAUAUUACGUACU | 0.219 |
| GGUAAGCAAUAUUACGGUAC | -0.815 |
| CUGCAGCAAUAUUACGUCGA | -1.65 |
| CGGGAGCAAUAUUACGUCUU | -0.499 |
| AGGGAGCAAUAUUACGUCAC | -2.69 |
| UUGCAGCAAUAUUACGGCUU | 0.35 |
| AUCUAGCAAUAUUACGUGCC | -1.08 |
| UCGCAGCAAUAUUACGUGCA | -0.836 |
| GGCUAGCAAUAUUACGCCAA | -0.903 |
| AAGCAGCAAUAUUACGGUCA | 0.242 |
| AACAAGCAAUAUUACGCUUA | -1.21 |
| ACAGAGCAAUAUUACGUCUA | -1.73 |
| GCACAGCAAUAUUACGCUGG | -1.92 |
| AUAGAGCAAUAUUACGUCAC | -0.0932 |
| CGAUAGCAAUAUUACGGGAA | -2.33 |
| CAGAAGCAAUAUUACGCUGG | -2.21 |
| UCCCAGCAAUAUUACGUACA | -0.819 |
| ACGAAGCAAUAUUACGUCGG | -1.65 |
| CUGCAGCAAUAUUACGCUUC | -1.03 |
| GCUAAGCAAUAUUACGAAGA | -0.138 |
| CGACAGCAAUAUUACGACCU | 0.317 |
| AAUUAGCAAUAUUACGUCUC | -0.478 |
| GCACAGCAAUAUUACGCAGG | -2.74 |
| UCAAAGCAAUAUUACGAUGC | -0.924 |
| UGGCAGCAAUAUUACGGCGG | 0.549 |
| CCGAAGCAAUAUUACGAUCA | -0.736 |
| GGGUAGCAAUAUUACGGUCG | -0.642 |
| AAUAAGCAAUAUUACGUCAA | -2.06 |
| AGCGAGCAAUAUUACGUGUG | -2.88 |
| GUUGAGCAAUAUUACGCACC | -1.67 |
| UCACAGCAAUAUUACGCGAA | -0.538 |
| GCACAGCAAUAUUACGACAA | -1.22 |
| ACCCAGCAAUAUUACGCGAC | -1.22 |
| GCAGAGCAAUAUUACGAUAC | -0.699 |
| UUAUAGCAAUAUUACGAUGC | -1.93 |
| AGUAAGCAAUAUUACGCAGC | -1.8 |
| GAUCAGCAAUAUUACGUCGC | 0.0313 |
| AUCAAGCAAUAUUACGCCUA | -0.646 |
| GACAAGCAAUAUUACGUUAU | -1.5 |
| CCAAAGCAAUAUUACGACAU | -2.82 |
| GGUCAGCAAUAUUACGGGGA | -1.87 |
| GACAAGCAAUAUUACGAUUG | -1.54 |
| GUCGAGCAAUAUUACGAUUA | -0.944 |
| GCUAAGCAAUAUUACGGUGG | -1.82 |
| GUACAGCAAUAUUACGCGUA | -1.71 |
| GGAGAGCAAUAUUACGCUUC | -1.31 |
| CAAUAGCAAUAUUACGAAAC | -1.35 |
| CUCAAGCAAUAUUACGCCAG | -0.675 |
| AAGAAGCAAUAUUACGUUAC | -3.57 |
| UGUGAGCAAUAUUACGUAAU | -2.2 |
| GAUCAGCAAUAUUACGUACC | -0.245 |
| GUGAAGCAAUAUUACGCCUA | -0.226 |
| UGCUAGCAAUAUUACGUGGA | -2.44 |
| UCAUAGCAAUAUUACGCUUA | -1.21 |
| UAUUAGCAAUAUUACGUGGU | -2.69 |
| CAUUAGCAAUAUUACGCGCU | -1.51 |
| CAUUAGCAAUAUUACGGAGG | -0.878 |
| CACCAGCAAUAUUACGCAAG | -0.12 |
| CUCGAGCAAUAUUACGACUC | -2.61 |
| UCCCAGCAAUAUUACGCCUG | -1.8 |
| AGUGAGCAAUAUUACGGUGG | -2.69 |
| GAGAAGCAAUAUUACGCUAC | -1.58 |
| GCCGAGCAAUAUUACGCGAU | -3.09 |
| GUUCAGCAAUAUUACGGUAA | -0.563 |
| GAUUAGCAAUAUUACGAGGG | -2.88 |
| GCAUAGCAAUAUUACGAUAA | -1.27 |
| AACCAGCAAUAUUACGGACG | -0.143 |

====

# assay_overview: self-splicing fitness, log relative to wild type (ln ratio); higher = more splicing; Tetrahymena group I intron in knt gene, E. coli kanamycin selection, DiMSum; sequences stand for … in CUCUCU…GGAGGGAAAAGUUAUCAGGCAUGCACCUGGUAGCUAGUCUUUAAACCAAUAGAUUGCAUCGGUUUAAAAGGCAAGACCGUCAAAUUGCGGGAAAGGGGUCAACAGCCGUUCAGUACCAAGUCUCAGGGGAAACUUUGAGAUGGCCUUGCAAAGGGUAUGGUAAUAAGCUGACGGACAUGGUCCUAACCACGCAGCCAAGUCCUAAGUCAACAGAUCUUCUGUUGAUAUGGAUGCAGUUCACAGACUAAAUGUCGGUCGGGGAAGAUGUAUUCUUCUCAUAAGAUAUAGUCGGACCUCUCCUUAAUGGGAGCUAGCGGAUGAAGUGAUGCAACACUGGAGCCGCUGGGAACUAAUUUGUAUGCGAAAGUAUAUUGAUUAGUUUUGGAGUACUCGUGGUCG
# cond: 30 °C
Tag: Met if measured self-splicing fitness (ln) is not below -3, Not met if it is.

| sequence_chain | group_label |
| --- | --- |
| CCUUAGCAAUAUUACGAUCU | Not met |
| GGAGAGCAAUAUUACGAGGA | Not met |
| ACCAAGCAAUAUUACGAAGG | Met |
| CCGAAGCAAUAUUACGUGCA | Not met |
| UUACAGCAAUAUUACGUCUU | Met |
| GUCGAGCAAUAUUACGACGU | Met |
| UCCCAGCAAUAUUACGGAAG | Not met |
| UGAAAGCAAUAUUACGGACC | Met |

====

# assay_overview: self-splicing fitness, log relative to wild type (ln ratio); higher = more splicing; Tetrahymena group I intron in knt gene, E. coli kanamycin selection, DiMSum; sequences stand for … in CUCUCU…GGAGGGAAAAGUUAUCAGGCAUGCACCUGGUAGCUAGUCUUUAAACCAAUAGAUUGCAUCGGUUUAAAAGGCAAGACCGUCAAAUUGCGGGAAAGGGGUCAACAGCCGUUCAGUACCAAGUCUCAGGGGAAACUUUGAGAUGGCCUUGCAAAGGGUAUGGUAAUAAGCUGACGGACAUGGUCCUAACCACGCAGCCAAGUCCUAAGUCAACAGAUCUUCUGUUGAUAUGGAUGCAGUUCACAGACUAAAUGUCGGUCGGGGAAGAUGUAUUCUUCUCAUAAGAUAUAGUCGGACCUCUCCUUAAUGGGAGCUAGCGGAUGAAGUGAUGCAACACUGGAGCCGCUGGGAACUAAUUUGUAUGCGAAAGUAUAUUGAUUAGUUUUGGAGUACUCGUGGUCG
# cond: 37 °C
# self-splicing fitness (ln) per entry
measured_parameter: self-splicing fitness (ln)

| sequence_chain | measured_parameter | value_measured |
| --- | --- | --- |
| GGACAGCAAUAUUACGCGGU | self-splicing fitness (ln) | -1.6 |
| GGGGAGCAAUAUUACGUCCG | self-splicing fitness (ln) | -0.326 |
| GAGAAGCAAUAUUACGUGAU | self-splicing fitness (ln) | -0.801 |
| GGCAAGCAAUAUUACGACAA | self-splicing fitness (ln) | -0.492 |
| CUGAAGCAAUAUUACGUUUU | self-splicing fitness (ln) | -3.22 |
| CAUAAGCAAUAUUACGAAAU | self-splicing fitness (ln) | -2.68 |
| GUCGAGCAAUAUUACGCUUC | self-splicing fitness (ln) | -4.17 |
| UCAUAGCAAUAUUACGUUCU | self-splicing fitness (ln) | -2.32 |
| GCCGAGCAAUAUUACGAACC | self-splicing fitness (ln) | 0.455 |
| AUGGAGCAAUAUUACGCUUG | self-splicing fitness (ln) | -0.294 |
| GCUGAGCAAUAUUACGACAC | self-splicing fitness (ln) | -1.1 |
| CGUCAGCAAUAUUACGCGUA | self-splicing fitness (ln) | -0.985 |
| AGCAAGCAAUAUUACGCAUA | self-splicing fitness (ln) | -1.06 |
| CGUAAGCAAUAUUACGUUCG | self-splicing fitness (ln) | -0.453 |
| GACAAGCAAUAUUACGAACG | self-splicing fitness (ln) | -0.997 |
| AUUUAGCAAUAUUACGUCCC | self-splicing fitness (ln) | -0.682 |
| AGCAAGCAAUAUUACGUUAA | self-splicing fitness (ln) | -1.68 |
| CAAAAGCAAUAUUACGCCCU | self-splicing fitness (ln) | -0.434 |
| AGAUAGCAAUAUUACGCGUU | self-splicing fitness (ln) | -0.0669 |
| UCAAAGCAAUAUUACGUUUC | self-splicing fitness (ln) | -3.15 |
| UGGUAGCAAUAUUACGAACG | self-splicing fitness (ln) | 0.374 |
| UUGAAGCAAUAUUACGCAAA | self-splicing fitness (ln) | -0.121 |
| AAGUAGCAAUAUUACGCUGC | self-splicing fitness (ln) | -0.747 |
| CUGAAGCAAUAUUACGGGAC | self-splicing fitness (ln) | -0.612 |
| AGUAAGCAAUAUUACGACCG | self-splicing fitness (ln) | -0.428 |
| UACUAGCAAUAUUACGUAAC | self-splicing fitness (ln) | -3.33 |
| GGGCAGCAAUAUUACGGAUU | self-splicing fitness (ln) | -0.0797 |
| GCCCAGCAAUAUUACGGUGU | self-splicing fitness (ln) | -1.27 |
| GAUGAGCAAUAUUACGGUCA | self-splicing fitness (ln) | -0.516 |
| UAUUAGCAAUAUUACGACUG | self-splicing fitness (ln) | 0.804 |
| CUACAGCAAUAUUACGGUUC | self-splicing fitness (ln) | -1.23 |
| GCUUAGCAAUAUUACGUGUC | self-splicing fitness (ln) | -0.348 |
| UGUUAGCAAUAUUACGCCUG | self-splicing fitness (ln) | 0.171 |
| CUCAAGCAAUAUUACGAUAA | self-splicing fitness (ln) | -1.93 |
